Just for reference, patent US20250333398A1 is where these values come from.

- tgt: human STING WT (R232)
- assay_overview: Human STING HTRF binding assay (competitive, Cisbio 64BDSTGPEG)
- condition_label: 6His tagged human STING WT R232, competition with STING ligand-d2
Item-by-item account of pIC50
// pIC50 is dimensionless: -log10 of concentration (M)

Worked examples follow.
CC[P@](C)(=O)c1ccc(-c2nc(-c3cccc4nn(-c5cc(C(F)(F)F)n(C)n5)cc34)c(C3CC3)n2C)c(OC(F)(F)F)c1 | 7.50
COc1nn(C2CC2)cc1-n1cc2c(-c3nn(-c4ccc(P(C)(C)=O)cc4C)c(C)c3C(C)C)cccc2n1 | 7.76
CC[P@](C)(=O)c1ccc(-c2nc(-c3cccc4nn(-c5cn(C6CC6)nc5OC)cc34)c(C3CC3)n2C)c(OC(F)(F)F)c1 | 8.19
CC[P@](C)(=O)c1ccc(-c2nc(-c3cccc4nn(-c5cc(C6CC6)n(C)n5)cc34)c(C3CC3)n2C)c(OC(F)(F)F)c1 | 7.75

Entry `Cn1nc(-n2cc3c(-c4nc(-c5ccc(P(C)(C)=O)cc5OC(F)(F)F)n(C)c4C4CC4)cccc3n2)cc1C(F)F` , pIC50 reported as 7.60

pIC50 reported for this compound `COc1nn(C2CC2)cc1-n1cc2c(-c3nc(-c4ccc(C(N)=O)cc4OC(F)(F)F)n(C)c3C3CC3)cccc2n1` : 7.86
